target: human recombinant 6His-Nterm SHP2 full-length (Thr2-Arg593) (Homo sapiens, UniProt Q06124)
Construct: 6His-Nterm SHP2 full-length (Thr2-Arg593, R&D system); 6His (N); purchased R&D system
Sequence (Q06124 2-593): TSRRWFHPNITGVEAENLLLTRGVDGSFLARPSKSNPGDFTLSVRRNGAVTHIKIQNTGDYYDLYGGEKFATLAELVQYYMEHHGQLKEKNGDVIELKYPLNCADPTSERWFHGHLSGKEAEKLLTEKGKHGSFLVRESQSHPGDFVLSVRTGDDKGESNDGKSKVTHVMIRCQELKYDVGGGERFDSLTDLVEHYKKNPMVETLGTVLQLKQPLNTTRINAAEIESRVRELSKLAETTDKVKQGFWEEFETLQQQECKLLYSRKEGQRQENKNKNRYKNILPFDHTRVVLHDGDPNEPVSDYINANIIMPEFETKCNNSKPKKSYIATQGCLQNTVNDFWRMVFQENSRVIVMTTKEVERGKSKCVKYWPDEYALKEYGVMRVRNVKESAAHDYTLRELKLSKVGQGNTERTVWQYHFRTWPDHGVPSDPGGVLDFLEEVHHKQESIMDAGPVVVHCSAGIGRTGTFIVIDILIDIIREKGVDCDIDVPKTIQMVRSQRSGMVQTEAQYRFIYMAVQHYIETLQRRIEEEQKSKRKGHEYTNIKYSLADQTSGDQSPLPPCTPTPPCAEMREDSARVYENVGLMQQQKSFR
protocol: SHP2 Phosphatase Assay (DiFMUP fluorescence)
Format: biochemical
assay context: SHP2 0.2 nM pre-incubated with 100 nM bi-phosphorylated activating peptide; compound 1000-0.05 nM, 30 min pre-incubation; DiFMUP 20 µM, 45 min, room temperature; 10-concentration dose-response
Where a name gives a salt, the structure may show the parent alone.
quantity: IC50 (nM)
Answer with a number only, understood to be in nM.

compound=Cc1nc(N2CCC3(CC2)Cc2ncccc2[C@H]3N)c2ccnn2c1-c1ccc2c(c1)OCCO2 units_symbol=nM observed=3
compound=Cc1nc(N2CCC3(CC2)Cc2ncccc2[C@H]3N)c2ccnn2c1-c1ccc2ncccc2c1 units_symbol=nM observed=26
compound="Cc1nc(N2CCC3(CC2)Cc2c(F)cccc2[C@H]3N)c2ccnn2c1-c1cnn(C)c1C [Compound 95, formate]" units_symbol=nM observed=19
compound=Cc1nc(N2CCC3(CC2)Cc2ncccc2[C@H]3N)c2cc(CO)nn2c1-c1cccc(F)c1F units_symbol=nM observed=9
compound=Cc1nc(N2CCC3(CC2)Cc2ncccc2[C@H]3N)c2ccnn2c1-c1cccc(F)c1C#N units_symbol=nM observed=39

Next, consider the following compound.
I'd like to know its IC50. The compound in question is Cc1nc(N2CCC3(CC2)Cc2ncccc2[C@H]3N)c2ccnn2c1-c1ccnc(C(F)(F)F)c1
130

Source listed as patent EP4227307A1.
